experiment: soluble fraction after stress (log2 fold change); higher = more stays soluble; pooled small domains, quantitative proteomics; settings: stress: pH 4
Property Measured: soluble fraction (log2)
Respond with the number and no other words.

# input // lookup soluble fraction (log2) for `HMTPAKQVSAKAERWIDQLGSSDWEKREEAAAELKKLGGAAKSALEKALKNADPEVASKAEELLEALES`
# output 0.213

# input Please answer likewise for `HMGGKWKPIILYYININSVARYSELKRFIPSINERMLTRQLRELEEDNLIERKVYPIVPPKVEYRLTEYGK`
# output 0.0222

# input Please answer likewise for `HMGERMELTLDNPREAIPVLDAMGFANYQVVDKEHIHIFERLNESALVNMELAKAGIPVKGISITSE`
# output -0.523

# input Please answer likewise for `HMSAAYVYVTGTRVNQRDGPSTFDRVMGVLVEGTRVQLLRDQGQWAQIRSDLGTGWLSSGFLSRNG`
# output 0.0158

# input Please answer likewise for `HMVMRHTVEHDAELLAVLRLMYPASSSTKLRKMLTQGRVLVNDDVVHRAKHGVASGDTVDVIVRQRAE`
# output 0.0827

# input Please answer likewise for `HMLKLEDIKKDAQVKGIVDGQIVRIVTVEPIGDHALTVYYKDHQGQFAERMLFRSDELNLELATA`
# output -0.64

# input Please answer likewise for `HMRMTTEQLMSFLKQHFPQVADNFTVRISDEGRLSVEMPVNDKHLRPGGTVSGPSMFALADVAFYLAILQ`
# output -0.349

# input Please answer likewise for `HMSDNLSASERKALSHMEGMESVRSSEVADLLGMSQRGAQKLLNRLVDKGLASSFGANRNRRYSVE`
# output 0.111

====

test: soluble fraction after stress (log2 fold change); higher = more stays soluble; pooled small domains, quantitative proteomics; details: stress: pH 4
Property Measured: soluble fraction (log2)
Respond with the number and no other words.

# input // lookup soluble fraction (log2) for `HMHDAKTQLQEEAARRGLPAPVYTRIGQEGPDHAPRFRVRADVGPHQAEAVAGSLKLAQAEAARAILRQMP`
# output 0.28

# input Please answer likewise for `HMEQPLSLKLANNAFSRFWGNANPAEKDTQPNNSDIAKWVIEQSGGKITQTMADKIAQIIRPEWAA`
# output 0.25

# input Please answer likewise for `HMTNNDIIRRVRYLFNFSDKQVIELFKLANETVSIEHVSGWLKKEEDPTLIEISDRDLAVFLNGLII`
# output -1.65

# input Please answer likewise for `HMNVDALVGQRGRVTQTFDPGLRLGRVAVGGDDWRAETTTDQPLREGDLVEVVSVESNTLIVRPIA`
# output 0.0146

# input Please answer likewise for `HMNESADMPDVVNMSLEAAKSQLEGMGLKVKVENVEDDSVEENHVIKTSPVSGEKVKLGTTVTLTVSKGR`
# output -0.279

# input Please answer likewise for `HMTPNRDDEHLQSLRDYYASNRRIPSLQRIAALLGFSSRSAAVKLMGRLADEGFVERTVDDDAWIPGSRFF`
# output -0.194

# input Please answer likewise for `HMDRQIQITVAENEAGQRLDAFLAAKIPDMSRSYIQKLIEDGLILVNGQSTKGKVKTYSGMNIEVYMPE`
# output 0.22

# input Please answer likewise for `HMIIVMRKGATEAQVNDIVERVRAAGFGVHLSQGEERTIIGAIGGDRAVLADLNLEAAPGVERVTPIS`
# output -0.0491

====

assay: soluble fraction after stress (log2 fold change); higher = more stays soluble; pooled small domains, quantitative proteomics; conditions: stress: pH 4
Property Measured: soluble fraction (log2)
Respond with the number and no other words.

# input // lookup soluble fraction (log2) for `HMKEFSFNGGKVIMNYEADRIQIKHDSRPNQEVITLMKRNGFKWSPTNQAWQRQITGNAIYVTKNLLKS`
# output -0.0347

# input Please answer likewise for `HMSDGTVYGSDGVIKVNLPQSGMLRIYATDGTTLVNRWQAAGIDTISMPRGLYIVRFDNQVWKVVV`
# output 0.00982

# input Please answer likewise for `HMNEVETWSVQADGATGRIDKWLAEQNEWSRSQVQEWLKAGRVEVDGRVVKPNYKLSGTESIAVHIPEAV`
# output -0.0787

# input Please answer likewise for `HMEFNQAVQDVNELSMQYAKSDVLWPEFEPKVLAFAKNELSQMPPNQWKFALQTFYNGLKQAA`
# output -0.0767

====

experiment: soluble fraction after stress (log2 fold change); higher = more stays soluble; pooled small domains, quantitative proteomics; conditions: stress: pH 4
Would you kindly list soluble fraction (log2) for each of these sequences?
Respond with the number and no other words.

# input // lookup soluble fraction (log2) for `HMRSLVDRSVQAVTDHIRENALRVGDSLPGEAYFATSLGVSRAVMREAFGALAALRVIDVGNGRKPRVGAI`
# output -0.438

# input Please answer likewise for `HMTMIIQLDKNITQEQRQFLVEELNRLSISPNFVSTQFTNYIVGIPKKEFDIRLIGNLPGIADIHFV`
# output -0.269

# input Please answer likewise for `HMSSSMDAIAEIIRSIPRGDHLTAPEVYELAKQRGLKLSLSTVYRTLNKLKVVGDVITVSGDRGLRYESV`
# output 0.215

# input Please answer likewise for `HMVKFGERVKQLRLSAGMTQEQLAERIWVTKAAISNYELSERNPSPETIIKIAGVFGVTTDYLLGLED`
# output -0.434

# input Please answer likewise for `HMKHMTMYEAAKIAKEVGAPKLWLTHYSPSMTRPEEFMDDVRKIFPAAYAAKDGWTMELNFDEG`
# output -0.385

# input Please answer likewise for `HMIGDNNELFQKAQLTPREKEVALLLLQGETNSDIAKILYVGLSTVKKHISSIFEKTKVKSRTEFISKVR`
# output 0.0668

# input Please answer likewise for `HMDSIQMKNNSILYYGNTAGYLDAKRNTAVVDPMFRTDEMESYLSEQKGLSVEWASGTYDRLT`
# output -0.921

# input Please answer likewise for `HMLSYFKIIKNGLVREGPASYYKIAENLEIGTIVQAFEKHDDWYLIKTHSGRIGWIVASDVTPQV`
# output 0.36

# input Please answer likewise for `HMAHESYVKEQLLLSLTNHEDPIMQISLIEQLTKMHERNIIHELEKLTVDVQTNEEVKVQAYASLLILS`
# output -0.962

# input Please answer likewise for `HMPVNGEFIERIKVMVLENKAKGKKERLTKTRMHQLLQEEGYKGSYSAFTHQVRIIEEELGVNQKEAH`
# output 0.235

# input Please answer likewise for `HMDLKSLEFAIVENVQRHDLNPLEEAQGYKRLIDEFSYDQDKVSKFIGKSRSYITNSLRLLNLPLEVLEF`
# output -0.541

# input Please answer likewise for `HMLDFGQEDSEAVSEIILVLGRYWMDFSHKKYPEAEGSALRHKGISHIFTVLKPYLTSATAQLIEQRLQQ`
# output -0.398

# input Please answer likewise for `HMSGSFDVTLDYLNSLRNLYPAIDVEQEFRKMYAWLDSNPKNRKTERGIKRFITGWLGRAQDKAP`
# output -0.9

# input Please answer likewise for `HMPADHYEVLGIARDADAAEVKRAYRRLARESHPDANHGDSGAEVRFKAVSAAYEVLSDPERRARYDRFGH`
# output -0.257

# input Please answer likewise for `HMSQSYHLADRGQSLGTLDYQAVLVGLATGRLSPDTLSWQEGEAGWVALRQRPEFASGVSAVASL`
# output -0.753

# input Please answer likewise for `HMKPNEYVSGETFPYLGKNYRLKVLHGSENSVRLKGGYFITTISNRDSQLSTVKSLLEDWYQTHADK`
# output -0.163

# input Please answer likewise for `HMHSFGLHVRNLRKKSNLTLSQLSNASGLSLSAISKIENNQISPSFINLIRLAEGLKMHIADLVTVK`
# output -0.254

====

experiment: soluble fraction after stress (log2 fold change); higher = more stays soluble; pooled small domains, quantitative proteomics; conditions: stress: pH 4
Would you kindly list soluble fraction (log2) for each of these sequences?
Respond with the number and no other words.

# input // lookup soluble fraction (log2) for `HMFGDQMQSYLSRLSQIDVDIIALKYGDNFTYREIGLILEMSEDSVRQRAVRARKKLETMIQKG`
# output -1.29

# input Please answer likewise for `HMDKSRPVLRVGDSGDWVSKLQTALLEFGYRVAVDGVFGEHTKSAVVHFQNGRRLIADGVVGNLTWDALL`
# output -0.968

# input Please answer likewise for `HMGKELSTVVVPDLTGLSVLEARNVLTKVGLQLTPSGAGIAFKQIPTPGTRLTLGATVTVYFVATGY`
# output -1.27

# input Please answer likewise for `HMGRKEIIVPNLLGKYAIEAGTILKNAGLLEGQAREENSDTYPAGQIMDQFPKANTPANENDKVDYVVSI`
# output -0.202

====

Would you kindly list soluble fraction (log2) for each of these sequences?
assay: soluble fraction after stress (log2 fold change); higher = more stays soluble; pooled small domains, quantitative proteomics; details: stress: pH 4
Respond with the number and no other words.

# input // lookup soluble fraction (log2) for `HMGDLKSLIQATMDDAGISIKPDAMDYLISHLGSDRLTTRAELDKLILYAGADDKLDLDSVVELVG`
# output -0.794

# input Please answer likewise for `HMKITLAESVYERIRRDIITNQLKPGEKINIRELSTRYEASETPIRLALNRLASENIIEHFPRQGMRVK`
# output -0.0624

# input Please answer likewise for `HMGLPAWVPQNYIDRVTAIYDYSADKDDELTFNEGSTIFVLKKNDDGWWEGVMDGVTGLFPGNYVEAT`
# output -1.63

# input Please answer likewise for `HMVEIPEFKITTFVNTDNEQIAEFENGFTDKKAEITFNNTKYVFKEKLPDQDGIRTYVYEELHE`
# output -0.438

# input Please answer likewise for `HMKNTLDAYIRYLSNFLSRNNYPEAEDLSFINARADQAYEVFLEARRGGVDVSTAEELAMIALMQGY`
# output -1.34

# input Please answer likewise for `HMIMVAGHLQIKKGKYYMVLELKSESGERKTKWISTGLSAKGNKRKAEAMLEEARENYQSTDA`
# output -0.0361

# input Please answer likewise for `HMHSEEAALLHRYIDSLEEPQHTVVVMRDIGGYSFEEIASVVQLKEAHIWMILSRARRKLRELYIKTMDHH`
# output -0.101

# input Please answer likewise for `HMTNVFSIIGKKALVIKDIDPIHSSGQIKLNGEVWSAETENDEIIKEGSEVEVLKINGVKAIVKLV`
# output 0.149
